From: patent US20250304644A1

For each record, write down the corresponding Efficacy GLP-1R.
target: human GLP-1R (glucagon-like peptide-1 receptor) (human, UniProt P43220 24-463); assay: cell-based or functional assay
*1 amine or outer side, *2 acyl side, *3 side chain or, on linkers, in order; H or OH if unused. Where no end group is shown, it is not given here. Side-chain parts run from the residue outwards. [ ]: non-standard residue; d: D form. The star is where a group is joined. C18 diacid = O=C(O)CCCCCCCCCCCCCCCCC(=O)*; γGlu = O=C(O)[C@H](CCC(=O)[*:2])N[*:1]; Decanoyl = CCCCCCCCCC(=O)*; AEEA = NCCOCCOCC(=O)O; Aib = CC(C)(N)C(=O)O
Write the number on its own, no unit after it.

[Q] Assign Efficacy GLP-1R to the following record: HXDGTFISDYSTXLDNLAARDFINWLIQTKITK (Aib at positions 2 and 13; K33 acylated with C10, K(C10); C-terminal amide (-NH2)) [Compound 12]
[A] 76

[Q] Assign Efficacy GLP-1R to the following record: H[Aib]EGTFISDYSTILDNLAARDFINWLIQTKITK(Decanoyl)-NH2 [Compound 11]
[A] 76

[Q] Assign Efficacy GLP-1R to the following record: HADGTFTSDYSTILDK([AEEA-AEEA-γGlu-C18 diacid])LAARDFINWLIQTKGKKNDWKHNITQ-OH [Compound 21]
[A] 122

[Q] Assign Efficacy GLP-1R to the following record: H[Aib]DGTFISDYSTILDALAARDFINWLIQTKITK([AEEA-AEEA-γGlu-C18 diacid])-OH [Compound 28]
[A] 102

[Q] Assign Efficacy GLP-1R to the following record: HADGTFTSDYSTILDKLAARDFINWLIQTKGKKNDWK([AEEA-AEEA-γGlu-C18 diacid])HNITQ-OH [Compound 25]
[A] 116

[Q] Assign Efficacy GLP-1R to the following record: HADGTFTSDYSTILDKLAARDFINWLIQTKGKKNDWKHNITQK([AEEA-AEEA-γGlu-C18 diacid])-OH [Compound 26]
[A] 103

[Q] Assign Efficacy GLP-1R to the following record: HXDGTFISDYSTILDNLAARDFIEWLIQTKITK (Aib at position 2; K33 acylated with C10, K(C10); C-terminal amide (-NH2)) [Compound 9]
[A] 105

[Q] Assign Efficacy GLP-1R to the following record: HADGTFTSDYSTILDKK([AEEA-AEEA-γGlu-C18 diacid])AARDFINWLIQTKGKKNDWKHNITQ-OH [Compound 23]
[A] 105

[Q] Assign Efficacy GLP-1R to the following record: H[Aib]DGTFISDYSIILDNLAARDFINWLIQTKITK(Decanoyl)-NH2 [Compound 10]
[A] 99

[Q] Assign Efficacy GLP-1R to the following record: HXDGTFISDYSTILDNLAARDFINWLIQTKITK (Aib at position 2; K33 acylated with C10 via γGlu linker, K(γGlu-C10); C-terminal amide (-NH2)) [Compound 17]
[A] 107

[Q] Assign Efficacy GLP-1R to the following record: HADGTFTSDYSIILDK([AEEA-AEEA-γGlu-C18 diacid])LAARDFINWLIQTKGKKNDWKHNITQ-OH [Compound 20]
[A] 112

[Q] Assign Efficacy GLP-1R to the following record: HADGTFTSDYST[Aib]LDKLAARDFINWLIQTKGKKNDWKHNITQK([AEEA-AEEA-γGlu-C18 diacid])-OH [Compound 27]
[A] 115
